These entries and their values trace back to PubChem BioAssay.

# SYSTEM_NAME: Torsin-1A (Homo sapiens) (UniProt O14656)
# Sequence (O14656 whole entry, looked up): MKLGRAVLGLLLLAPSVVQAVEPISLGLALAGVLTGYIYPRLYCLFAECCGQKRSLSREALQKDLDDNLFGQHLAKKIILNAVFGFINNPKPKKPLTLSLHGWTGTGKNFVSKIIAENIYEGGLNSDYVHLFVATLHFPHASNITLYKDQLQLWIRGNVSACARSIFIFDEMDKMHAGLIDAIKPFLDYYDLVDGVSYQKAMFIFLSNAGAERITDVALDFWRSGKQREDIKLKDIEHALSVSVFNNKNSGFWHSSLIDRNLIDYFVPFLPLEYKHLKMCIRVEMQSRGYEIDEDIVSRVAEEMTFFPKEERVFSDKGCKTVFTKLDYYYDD
# TEST: torsin A binders from cell lysate, primary screen, small-molecule microarray, wild-type, 635/667 nm (AID 1149)
# EXPERIMENTAL_SETUP: COS7 hTOR1A-WT lysate, 635 nm fluorescence, higher = more signal
PROPERTY_LABEL: composite z-score
Kindly provide the number alone.

Please report the measured composite z-score for CN(C)CCCNC(=O)[C@@H]1c2ccccc2C(=O)N(CC23CC4CC(CC(C4)C2)C3)[C@H]1c1ccc(CO)cc1
0.954

Please report the measured composite z-score for NC(=O)NCC#Cc1ccc2c(c1)[C@]1(C(=O)N2)[C@H](C(=O)O)[C@H]2C(=O)O[C@H](c3ccccc3)[C@H](c3ccccc3)N2[C@@H]1c1ccccc1OCCO
0.712

Please report the measured composite z-score for CCCN1C(=O)[C@]2(Cc3ccccc3)N=C(c3ccc(OCCCO)cc3)O[C@@H]2c2ccccc21
0.317

Please report the measured composite z-score for COCCOC(=O)N1C(=O)[C@@]2(c3cc(C#CCC(C(=O)OC)C(=O)OC)ccc31)[C@H](c1ccc(OCCO)cc1)N1[C@H](c3ccccc3)[C@H](c3ccccc3)OC(=O)[C@H]1[C@@H]2C(=O)N1CCN(c2ncccn2)CC1
1.19

Please report the measured composite z-score for O=C1C[C@@](C(=O)NCC(F)(F)F)(c2ccc([N+](=O)[O-])cc2)[C@@H](c2ccc(CO)cc2)N1C1CCCCC1
1.36

Please report the measured composite z-score for COC(=O)[C@H](Cc1ccccc1)N1CC(/C=C/C2CC2)=C[C@@H]1[C@@H](O)Cc1ccccc1
0.957

Please report the measured composite z-score for CCN(CC)c1ccc(N2CC=CC34O[C@@H]5/C=C\CCC(C)OC(=O)C5[C@H]3C(=O)N(CCO)[C@@H]4C2=O)cc1 (some centres not stated)
-1.12
